# Experimental system: human PDE9A2 (Homo sapiens, UniProt O76083)
# Construct: made in house; host or cells: Sf9 insect cells (infected; crude lysate used as enzyme source)
# Sequence (O76083 1-533 isoform O76083-2): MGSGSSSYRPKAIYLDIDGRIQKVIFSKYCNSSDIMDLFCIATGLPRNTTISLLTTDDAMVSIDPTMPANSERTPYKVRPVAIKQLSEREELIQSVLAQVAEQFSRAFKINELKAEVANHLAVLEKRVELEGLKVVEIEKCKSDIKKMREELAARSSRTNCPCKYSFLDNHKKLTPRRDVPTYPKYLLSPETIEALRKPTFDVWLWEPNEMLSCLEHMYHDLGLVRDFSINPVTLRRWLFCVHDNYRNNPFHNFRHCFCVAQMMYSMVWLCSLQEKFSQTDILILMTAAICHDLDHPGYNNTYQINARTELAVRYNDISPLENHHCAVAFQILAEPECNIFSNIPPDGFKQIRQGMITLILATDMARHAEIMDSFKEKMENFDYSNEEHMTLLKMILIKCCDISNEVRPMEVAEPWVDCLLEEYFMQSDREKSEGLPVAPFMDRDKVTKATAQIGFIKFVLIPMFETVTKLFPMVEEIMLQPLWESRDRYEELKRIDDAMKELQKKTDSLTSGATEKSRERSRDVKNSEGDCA
# Method description: PDE9A2 enzymatic activity assay (scintillation proximity assay)
# Assay type: biochemical
# Conditions: at 10 micromolar concentration; read-out: % inhibition of PDE9A2
Observable: inhibition at 10 µM

> print(dat)
                                    molecule           observable  result
 1  O=c1[nH]c(C2CCC2)nc2c1cnn2C1CCCC1 [Example 29]  inhibition at 10 µM     98%
 2  O=C([C@H]1CCC[C@@H]1c1nc2c(cnn2C2CCC(F)(F)CC2)c(=O)[nH]1)N1CCCCC1 (racemic) [Example 25]  inhibition at 10 µM     95%
 3  O=C([C@H]1CC[C@@H]1c1nc2c(cnn2C2CCC(F)(F)CC2)c(=O)[nH]1)N1CCC(F)CC1 (racemic) [Example 11]  inhibition at 10 µM     94%
 4  O=C([C@H]1C[C@@H]1c1nc2c(cnn2C2CCC(F)(F)CC2)c(=O)[nH]1)N1CCCCC1 (racemic) [Example 23]  inhibition at 10 µM     92%
 5  COC1(C)CCN(C(=O)[C@H]2CC[C@@H]2c2nc3c(cnn3C3CCC(F)(F)CC3)c(=O)[nH]2)CC1 (racemic) [Example 13]  inhibition at 10 µM     97%
 6  O=c1[nH]c([C@@H]2CC[C@H]2Cn2cccn2)nc2c1cnn2C1CCC(F)(F)CC1 (racemic) [Example 47]  inhibition at 10 µM     89%
 7  O=c1[nH]c([C@@H]2CC[C@H]2CN2CC(F)(F)C(F)(F)C2)nc2c1cnn2C1CCC(F)(F)CC1 (racemic) [Example 28]  inhibition at 10 µM     94%
 8  CCOC(=O)[C@H]1CC[C@@H]1c1nc2c(cnn2C2CCCC2)c(=O)[nH]1 (racemic) [Example 27]  inhibition at 10 µM     98%
 9  O=C([C@H]1CCC[C@@H]1c1nc2c(cnn2C2CCC(F)(F)CC2)c(=O)[nH]1)N1CCC(F)(F)CC1 (racemic) [Example 19]  inhibition at 10 µM     92%
10  O=C([C@H]1CC[C@@H]1c1nc2c(cnn2C2CCC(F)(F)CC2)c(=O)[nH]1)N1CCCC(F)(F)C1 (racemic) [Example 14]  inhibition at 10 µM    100%
11  O=C([C@H]1CC[C@@H]1c1nc2c(cnn2C2CCC(F)(F)CC2)c(=O)[nH]1)N1CCOCC1 (racemic) [Example 1]  inhibition at 10 µM     99%
12  O=C([C@H]1CC[C@@H]1c1nc2c(cnn2C2CCC(F)(F)CC2)c(=O)[nH]1)N1CCCC1 (racemic) [Example 12]  inhibition at 10 µM     99%
13  O=C([C@H]1CC[C@@H]1c1nc2c(cnn2C2CCC(F)(F)CC2)c(=O)[nH]1)N1CCCCC1 (racemic) [Example 18]  inhibition at 10 µM     96%
14  O=C(C1CCCC1c1nc2c(cnn2C2CCCC2)c(=O)[nH]1)N1CCCCC1 (racemic) [Example 26]  inhibition at 10 µM     99%
15  O=C([C@H]1CCCC[C@@H]1c1nc2c(cnn2C2CCC(F)(F)CC2)c(=O)[nH]1)N1CCCC1 (racemic) [Example 21]  inhibition at 10 µM     66%
16  CCN(CC)C(=O)[C@H]1CC[C@@H]1c1nc2c(cnn2C2CCC(F)(F)CC2)c(=O)[nH]1 (racemic) [Example 17]  inhibition at 10 µM     99%
17  O=c1[nH]c([C@@H]2CC[C@H]2CO)nc2c1cnn2C1CCC(F)(F)CC1 (racemic) [Example 33]  inhibition at 10 µM     83%
18  O=C([C@H]1CC[C@@H]1c1nc2c(cnn2C2CCC(F)(F)CC2)c(=O)[nH]1)N1CC[C@@H](F)C1 (racemic) [Example 2]  inhibition at 10 µM    100%
19  C#CCNC(=O)C1CCC1c1nc2c(cnn2C2CCC(F)(F)CC2)c(=O)[nH]1 (racemic) [Example 22]  inhibition at 10 µM     90%
20  CC1CCN(C(=O)[C@H]2CC[C@@H]2c2nc3c(cnn3C3CCC(F)(F)CC3)c(=O)[nH]2)CC1 (racemic) [Example 15]  inhibition at 10 µM    101%
21  Cc1noc(C2CCC2c2nc3c(cnn3C3CCC(F)(F)CC3)c(=O)[nH]2)n1 (racemic) [Example 32]  inhibition at 10 µM     91%
22  Cc1ccncc1-n1ncc2c(=O)[nH]c(C3CCC3)nc21 [Example 31]  inhibition at 10 µM     80%
23  O=C(O)[C@H]1CC[C@@H]1c1nc2c(cnn2C2CCC(F)(F)CC2)c(=O)[nH]1 (racemic) [Example 46]  inhibition at 10 µM     91%
24  O=C([C@H]1CC[C@@H]1c1nc2c(cnn2C2CCC(F)(F)CC2)c(=O)[nH]1)N1CCC(F)(F)CC1 (racemic) [Example 9]  inhibition at 10 µM    100%
25  Cc1ccncc1-n1ncc2c(=O)[nH]c([C@H]3C[C@@H]3C)nc21 (racemic) [Example 36]  inhibition at 10 µM     90%
26  O=C([C@H]1CC[C@@H]1c1nc2c(cnn2C2CCC(F)(F)CC2)c(=O)[nH]1)N1CC(F)(F)C(F)(F)C1 (racemic) [Example 4]  inhibition at 10 µM     97%
27  O=C([C@H]1CC[C@@H]1c1nc2c(cnn2C2CCC(F)(F)CC2)c(=O)[nH]1)N1CCC2(CC2)C1 (racemic) [Example 5]  inhibition at 10 µM    100%
28  O=C([C@H]1CC[C@@H]1c1nc2c(cnn2C2CCCC2)c(=O)[nH]1)N1CCCCC1 (racemic) [Example 24]  inhibition at 10 µM    101%
